# Test target: mAChR M4 (Homo sapiens)
# Construct: expressed in transfected cells; host or cells: CHO-K1 cells stably transfected with M4 cDNA and chimeric G-protein Gqi5
# Sequence (P08173 1-479): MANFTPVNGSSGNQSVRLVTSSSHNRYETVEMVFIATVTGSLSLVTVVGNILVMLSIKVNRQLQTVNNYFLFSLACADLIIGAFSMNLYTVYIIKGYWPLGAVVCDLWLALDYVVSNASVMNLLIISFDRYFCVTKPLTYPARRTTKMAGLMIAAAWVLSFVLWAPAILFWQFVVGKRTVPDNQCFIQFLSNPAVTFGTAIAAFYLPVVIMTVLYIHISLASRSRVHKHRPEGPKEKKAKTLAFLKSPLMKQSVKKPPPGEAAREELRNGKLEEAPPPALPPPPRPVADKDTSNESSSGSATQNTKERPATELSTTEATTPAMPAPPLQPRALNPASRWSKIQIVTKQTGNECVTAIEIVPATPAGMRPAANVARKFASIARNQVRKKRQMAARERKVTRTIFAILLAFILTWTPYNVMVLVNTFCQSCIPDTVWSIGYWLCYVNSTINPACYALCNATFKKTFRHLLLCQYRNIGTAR
# Assay text: mAChR M4 cell-based functional assay (calcium mobilization, potentiation of EC20 acetylcholine response)
# Test context: mAChR M4 cell-based functional assay; >10,000 estimated for low potency compounds without plateau; read-out: EC50
Readout: EC50 (nM)

- Molecule: "Cc1nnc2sc(C(=O)NC3CN(C(=O)C4CC4)C3)c(N)c2c1C"
  EC50, nM: 230

A = COc1cccc(S(=O)(=O)C2CN(C(=O)c3sc4nnc(C)c(C)c4c3N)C2)c1
B = Cc1nnc2sc(C(=O)NCc3ccc(C(C)S(C)(=O)=O)cc3)c(N)c2c1C (centres unmarked)
Query string: Look at A and B . Which one has the lower recorded EC50 number? State your choice using its label.
Result string: B
(B: 150 nM, A: 590 nM)

I = Cc1nnc2sc(C(=O)N3CCC(NS(=O)(=O)CCCc4ccccc4)C3)c(N)c2c1C (centres unmarked)
II = Cc1nnc2sc(C(=O)NC3CCN(C(=O)CCc4ccccc4)C3)c(N)c2c1C (centres unmarked)
III = COc1ccc(C2CCN(C(=O)c3sc4nnc(C)c(C)c4c3N)C2)cc1 (centres unmarked)
IV = Cc1nnc2sc(C(=O)NC3CCN(C(=O)N4CCOCC4)C3)c(N)c2c1C (centres unmarked)
Query string: Hey, can you sort those molecules up there by EC50, smallest first? Write out the labels following the order that was asked for.
Result string: III, I, II, IV

----------
# Test target: mAChR M4 (Homo sapiens, UniProt P08173)
# Construct: expressed in transfected cells; host or cells: CHO-K1 cells stably transfected with M4 cDNA and chimeric G-protein Gqi5
# Assay text: mAChR M4 cell-based functional assay (calcium mobilization, potentiation of EC20 acetylcholine response)
# Test context: % ACh maximum at 30 μM
Readout: Emax at 30 µM (%)

- Compound: "Cc1nnc2sc(C(=O)N3CC(F)(c4ccccc4)C3)c(N)c2c1C"
  Endpoint unit: "%"
  Emax at 30 µM: 56

P = Cc1nnc2sc(C(=O)NC3CN(C(=O)c4cccc(F)c4)C3)c(N)c2c1C
Q = Cc1nnc2sc(C(=O)Nc3ccccn3)c(N)c2c1C
Query string: Look at P and Q . Which one has the lower recorded Emax at 30 µM number? State your choice using its label.
Result string: Q
(Q: 29%, P: 71%)

1 = Cc1nnc2sc(C(=O)NC3CN(S(C)(=O)=O)C3)c(N)c2c1C
2 = Cc1nnc2sc(C(=O)N3CC4CN(c5ccc(C#N)cn5)CC4C3)c(N)c2c1C (stereo not drawn)
Query string: Which has the higher Emax at 30 µM, 1 or 2 ? State your choice using its label.
Result string: 1
(1: 68%, 2: 45%)

P = Cc1cc(-c2ccc(CNC(=O)c3sc4nnc(C)c(C)c4c3N)cc2)cnc1Cl
Q = Cc1nnc2sc(C(=O)NCCNS(=O)(=O)c3ccc(F)cc3)c(N)c2c1C
R = Cc1nnc2sc(C(=O)Nc3nccs3)c(N)c2c1C
Query string: Order these by Emax at 30 µM, descending, and give the full ranking. Write out the labels following the order that was asked for.
Result string: P, Q, R
(P: 82%, Q: 57%, R: 37%)
